Protein target, amino acids: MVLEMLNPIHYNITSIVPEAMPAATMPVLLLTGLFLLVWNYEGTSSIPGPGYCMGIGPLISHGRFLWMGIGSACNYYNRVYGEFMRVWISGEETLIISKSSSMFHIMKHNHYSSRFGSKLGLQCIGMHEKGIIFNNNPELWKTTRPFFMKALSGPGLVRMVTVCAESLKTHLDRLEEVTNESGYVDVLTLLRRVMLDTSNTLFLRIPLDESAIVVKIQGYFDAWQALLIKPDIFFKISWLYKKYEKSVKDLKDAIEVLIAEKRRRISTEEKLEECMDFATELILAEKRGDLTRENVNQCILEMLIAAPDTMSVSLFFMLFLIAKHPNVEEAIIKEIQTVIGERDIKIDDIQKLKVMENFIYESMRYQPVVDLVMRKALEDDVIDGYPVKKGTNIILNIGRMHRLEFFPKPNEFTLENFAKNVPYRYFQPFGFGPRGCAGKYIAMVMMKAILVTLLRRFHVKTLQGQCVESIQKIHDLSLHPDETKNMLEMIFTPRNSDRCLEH
endpoint: pIC50
For clarity, pIC50 is expressed as the negative log10 of concentration in mol/L.

Query string: Return pIC50 (reported value) for this molecule: `O=[N+]([O-])c1ccc(-c2ccncc2)c(OCCCc2ccccc2)c1`
Result string: 5.30

Query string: Check the records and state pIC50 for `O=[N+]([O-])c1ccc(Cc2ccncc2)c(OCCc2ccccc2)c1`
Result string: 6.80

Please find the next molecule below.
Query string: Output pIC50 of `Nc1ccc(-c2cccnc2)c(OCc2ccccc2)c1`
Result string: 6.35
